B1: KAT8 regulatory NSL complex subunit 2, residues 28 to 91; numbered along this chain, Q9H9L4 (parent)
chain: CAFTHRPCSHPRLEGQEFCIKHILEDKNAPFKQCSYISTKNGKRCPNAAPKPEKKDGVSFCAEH

- Variants of: B1
- measurement notes: abundance fitness (aPCA) (normalised: wild type 0, dead -1); higher = more abundant; growth selection in yeast, the domain comes from the species named
- test context: Homo sapiens
Let's look at some variants and their measured abundance fitness.

{"residues": "CAFTHRPCSHPRLEGQEFCIKHILEDKNAPFKQCSYISHKNGKRCPNAAPKPEKKDGVSFCAEH", "abundance fitness": -0.091}
{"residues": "CAFTHRPCSHPRLEGQEFCIKAILEDKNAPFKQCSYISTKNGKRCPNAAPKPEKKDGVSFCAEH", "abundance fitness": -0.769}
{"residues": "CAFTHRPCSHPRLEGQEFCIKHILEDKNAPFKQCCYISTKNGKRCPNAAPKPEKKDGVSFCAEH", "abundance fitness": 0.003}
{"residues": "CAFQHRPCSHPRLEGQEFCIKHILEDKNAPFKQCSYISTKNGKRCPNAAPKPEKKDGVSFCAEH", "abundance fitness": -0.494}
{"residues": "CAFTHRPCSHPRLEGQEFCIKHILEDKNAPFKQCSYISTKNGKRCPNAAPKPEKKDGVSFCNEH", "abundance fitness": -0.105}

CAFTHRPCSHPRLEGQEFCISHILEDKNAPFKQCSYISTKNGKRCPNAAPKPEKKDGVSFCAEH has a reported abundance fitness of -0.125

Record CAFTHRPCSHIRLEGQEFCIKHILEDKNAPFKQCSYISTKNGKRCPNAAPKPEKKDGVSFCAEH , field abundance fitness: -0.298

Reported abundance fitness ( CAFTHRPCSHPRLEGQEFCIFHILEDKNAPFKQCSYISTKNGKRCPNAAPKPEKKDGVSFCAEH ) = 0.048

Per the record, CAFTHRPCSHPRLEGQEFCIKHILEDKNAPFKQCSYISTKNGKRCPNAAPKYEKKDGVSFCAEH has abundance fitness of -0.29

Briefly, abundance fitness measured for CAFTHRPCSHPRLEGQEFAIKHILEDKNAPFKQCSYISTKNGKRCPNAAPKPEKKDGVSFCAEH : -0.973

get_value(item= CAFTHRPCSHPRLEGQEICIKHILEDKNAPFKQCSYISTKNGKRCPNAAPKPEKKDGVSFCAEH , readout=abundance fitness) returns -0.678

Reported abundance fitness ( CAFTHRPCSHPRLEGQEFCIKHILEDKNAPFKQCSYISTKNMKRCPNAAPKPEKKDGVSFCAEH ) = -0.139

So, CAFTHRPCSHPRLEGQEFCIKHILEDKNAPFKQCSYISTKNGKRCPNAEPKPEKKDGVSFCAEH ? Its abundance fitness was -0.212

Query CAFTHRPCSHPRLEGQEFCIKHWLEDKNAPFKQCSYISTKNGKRCPNAAPKPEKKDGVSFCAEH yields abundance fitness of -0.286
